system: P388 leukemia ip, CD2F1 mice, survival T/C; test: NCI In Vivo Anticancer Drug Screen. Data for tumor model P388 Leukemia (intraperitoneal) in CD2F1 (CDF1) mice; details: endpoint: median survival time; dose: 200.0 mg/kg/injection; schedule: Q04DX002 (ip); vehicle: saline with Tween-80; higher = longer survival
Inconclusive results and toxic doses are left out.
Measured Parameter: T/C

Summary for this compound, COc1ccc(Sc2c(C(=O)O)cccc2C(=O)O)cc1 : T/C is 100 % of control

Summary for this compound, CNc1nc(OC)nc2c1cnn2C1CCCCO1 (configuration not stated) : T/C is 100 % of control

Summary for this compound, CN(c1ccc(Cc2ccc(N(C)S(C)(=O)=O)cc2)cc1)S(C)(=O)=O : T/C is 94 % of control

Summary for this compound, c1ccc2c(c1)N=Nc1ccccc1OCCOCCOCCOCCO2 : T/C is 100 % of control

Summary for this compound, CC(C)C(O)Cc1cc(=O)[nH]c2ccccc12 (configuration not stated) : T/C is 87 % of control

Summary for this compound, Cn1c(=O)[nH]c(=O)c2nc(-c3ccc(Cl)cc3)cnc21 : T/C is 97 % of control

Summary for this compound, CCN(CC)C(=O)N1CCN(C(=O)c2cc(Nc3ccnc4cc(Cl)ccc34)ccc2O)CC1 : T/C is 100 % of control

----------
tested on: P388 leukemia ip, CD2F1 mice, survival T/C; experiment: NCI In Vivo Anticancer Drug Screen. Data for tumor model P388 Leukemia (intraperitoneal) in CD2F1 (CDF1) mice; details: endpoint: median survival time; dose: 60.0 mg/kg/injection; schedule: Q01DX005 (ip); vehicle: saline with Tween-80; higher = longer survival
Toxic doses and inconclusive results are not listed.
Measured Parameter: T/C

Summary for this molecule, COc1ccc(C23OCN(c4ccccc4)C2(c2ccc(OC)cc2)c2ccccc2N3C)cc1 (configuration not stated) : T/C is 103 % of control

Summary for this molecule, COc1cc(C(c2c(O)c3ccccc3oc2=O)c2c(O)c3ccccc3oc2=O)cc(OC)c1O : T/C is 99 % of control

Summary for this molecule, O=C1CSC(c2cccc(F)c2)N1c1nncs1 (configuration not stated) : T/C is 98 % of control

Summary for this molecule, CCn1cnc2sc3c(c2c1=O)CCCC3 : T/C is 97 % of control

Summary for this molecule, N#Cc1ccc(NC(=O)Nc2ccc([N+](=O)[O-])cc2Cl)cc1 : T/C is 93 % of control

Summary for this molecule, C=CCC1(C)C=C(C)C(=O)C(C)=C1 : T/C is 105 % of control

Summary for this molecule, CCOC(=O)C1C(c2cccc(OC)c2O)c2cc3c(cc2OC1(C)N1CCCC1)OCO3 (configuration not stated) : T/C is 99 % of control

Summary for this molecule, COC(=O)c1cc2c(nn1)C(=O)Nc1ccccc1C2(C)C : T/C is 100 % of control

Summary for this molecule, CC(C)OCc1cn[nH]n1 : T/C is 100 % of control

Summary for this molecule, COc1ccc(C(c2cc3c(cc2O)OCO3)N2CCN(C(c3ccc(OC)c(O)c3)c3cc4c(cc3O)OCO4)CC2)cc1O (configuration not stated) : T/C is 96 % of control

Summary for this molecule, Clc1ccc(Nc2ncnc3oc(-c4ccccc4)c(-c4ccccc4)c23)cc1 : T/C is 100 % of control

Summary for this molecule, Cc1cccc(C(C#N)C(=O)CCCC(=O)Nc2ccccc2[N+](=O)[O-])c1 (configuration not stated) : T/C is 98 % of control

Summary for this molecule, CSC(=N\N=C\c1ccc2c(c1)OCO2)/N=C/N(C)C : T/C is 98 % of control

Summary for this molecule, CC(C)N(C(=O)c1ccc([Si](C)(C)C)c(C(=O)N(C(C)C)C(C)C)n1)C(C)C : T/C is 98 % of control

Summary for this molecule, N#CC(C(=O)C(=O)Nc1cccc(C(F)(F)F)c1)c1ccc(Cl)cc1Cl (configuration not stated) : T/C is 94 % of control

Summary for this molecule, COc1cccc(C2=NC(=C3CCCCC3)C(=O)O2)c1 : T/C is 105 % of control

Summary for this molecule, O=C(Nc1ccccc1F)N(CCO)C1CCCCC1 : T/C is 93 % of control

Summary for this molecule, O=C1CN2CCN3CC(=O)NC(=O)[C@H]3[C@@H]2C(=O)N1 : T/C is 96 % of control

Summary for this molecule, O=C(Nc1ccc(Cl)cc1)Nc1nnc2nc(C(C(=O)c3ccc(F)cc3)c3nc4nnc(NC(=O)Nc5ccc(Cl)cc5)n4[nH]c3=O)c(=O)[nH]n12 : T/C is 103 % of control

Summary for this molecule, Nc1nnc(COc2ccc(Cl)cc2)n1N : T/C is 107 % of control

Summary for this molecule, CCOC(=O)NNC(=O)Nc1ccc(O[Si](C)(C)C)cc1 : T/C is 109 % of control

Summary for this molecule, O=C1NC(=O)C(CCO)(c2ccccc2)C(=O)N1 : T/C is 88 % of control

----------
tested on: P388 leukemia ip, CD2F1 mice, survival T/C; experiment: NCI In Vivo Anticancer Drug Screen. Data for tumor model P388 Leukemia (intraperitoneal) in CD2F1 (CDF1) mice; conditions: endpoint: median survival time; dose: 120.0 mg/kg/injection; schedule: Q01DX005 (ip); vehicle: saline; higher = longer survival
Inconclusive results and toxic doses are left out. Peptide text beside a SMILES is read from it. * marks the point of attachment. Bn = c1ccc(C*)cc1
Task for the reader: assign each of the following compounds its reported T/C.

Summary for this compound, COc1ccc(C(=O)C2C(=O)C(=O)OC2C2OC(=O)C(=O)C2C(=O)c2ccc(OC)cc2)cc1 (stereo unspecified) : T/C is 93 % of control

Summary for this compound, O=S(=O)(O)C(O)C(F)(F)C(F)(F)C(F)(F)C(F)(F)C(O)S(=O)(=O)O (stereo unspecified) : T/C is 103 % of control

Summary for this compound, Cc1ncc(COP(=O)(O)O)c(C2NCCS2)c1O (stereo unspecified) : T/C is 105 % of control

Summary for this compound, NCC(=O)NCC(=O)NC(Cc1ccc(OCc2ccccc2)cc1)C(=O)NC(CCCN=C(N)N)C(=O)O (stereo unspecified) (H-GGY(Bn)R-OH; configuration not given here) : T/C is 100 % of control

Summary for this compound, CC(=O)/C=C(\C)NCCN/C(C)=C/C(C)=O : T/C is 98 % of control

Summary for this compound, CS(=O)CC1=NC(=N)N=C1CS(C)=O (stereo unspecified) : T/C is 102 % of control

Summary for this compound, COC1(CO)C(=O)N(C)CC(=O)N1C (stereo unspecified) : T/C is 106 % of control

Summary for this compound, COC(=O)C1(CC(=O)c2ccc(C)cc2)NC(=S)NC(=O)C1C#N (stereo unspecified) : T/C is 104 % of control

Summary for this compound, Nc1ncnc2c1ncn2CC(O)CN(CCO)CCO (stereo unspecified) : T/C is 95 % of control

Summary for this compound, Cn1ccnc1Sc1ccccn1 : T/C is 107 % of control

Summary for this compound, CN(CCO)CC(O)Cn1cnc2c(N)ncnc21 (stereo unspecified) : T/C is 97 % of control

----------
Task for the reader: assign each of the following compounds its reported T/C.
tested on: P388 leukemia ip, CD2F1 mice, survival T/C; experiment: NCI In Vivo Anticancer Drug Screen. Data for tumor model P388 Leukemia (intraperitoneal) in CD2F1 (CDF1) mice; conditions: endpoint: median survival time; dose: 200.0 mg/kg/injection; schedule: Q01DX009 (ip); vehicle: saline with Tween-80; higher = longer survival
Toxic doses and inconclusive results are not listed.

Summary for this compound, CC(C)(Nc1ccccc1)c1cccs1 : T/C is 109 % of control

Summary for this compound, COC(=O)/C=C/N1CCCC1 : T/C is 92 % of control

Summary for this compound, C=CCSc1nc(N)nc2nc[nH]c12 : T/C is 90 % of control

Summary for this compound, CC1(C)OC2C(COC(=O)c3ccc([N+](=O)[O-])cc3)OC(NC(=O)N(CCCl)N=O)C2O1 (configuration not stated) : T/C is 109 % of control

Summary for this compound, CC(=O)Nc1c([N+](=O)[O-])cc2c3c(cccc13)CC2 : T/C is 90 % of control

Summary for this compound, c1ccc(-c2nc3ccccc3o2)cc1 : T/C is 88 % of control

Summary for this compound, CCCSc1nc2c(N)nc(-c3ccccc3)nc2nc1N : T/C is 105 % of control

Summary for this compound, CCCCCCCCCCCC(=O)OCCN(CCOC(=O)CCCCCCCCCCC)C(=O)c1ccccc1 : T/C is 93 % of control

Summary for this compound, CN(C)C1CS(=O)(=O)C1c1ccccc1 (configuration not stated) : T/C is 102 % of control

Summary for this compound, OC1(C#Cc2ccccc2)c2ccccc2C(O)(C#Cc2ccccc2)c2c(C#Cc3ccccc3)cccc21 (configuration not stated) : T/C is 86 % of control

Summary for this compound, Cc1ccc(NC(=O)Oc2ccc(OCc3ccccc3)cc2)c([N+](=O)[O-])c1 : T/C is 95 % of control

Summary for this compound, C=C(c1ccc(OC)cc1)c1ccc(OC)cc1 : T/C is 102 % of control
